Give measured Ki for each item. Keep answers brief.
molecular target: hCA II (Homo sapiens, UniProt P00918); construct: gene CA2; recombinant, obtained in-house; assay: stopped-flow CO2 hydration; type: biochemical; settings: read-out: Ki (nM)^b / hCA II
Structures can show the parent of a compound that is named as a salt.
Give bare numbers, in nM.

[
  {
    "Compound": "CN1CCC(NS(N)(=O)=O)CC1 [2g, (1-Methylpiperidin-4-yl)sulfamide]",
    "Unit text": "nM",
    "Ki": 52.1
  },
  {
    "Compound": "NS(=O)(=O)N1CCNCC1 [2q, Piperazine-1-sulphonamide hydrochloride]",
    "Unit text": "nM",
    "Ki": 52.9
  },
  {
    "Compound": "NS(=O)(=O)NCC1CCCO1 (stereo not shown)",
    "Unit text": "nM",
    "Ki": 63.4
  }
]

Q) Return the recorded Ki value; entry: CCN(CC)CCN(C)S(N)(=O)=O [2l, (2-(Diethylamino)ethyl)(methyl)sulfamide]
A) 92.3
